target: Sigma intracellular receptor 2 (Rattus norvegicus)
Assay type: cell membranes, Sprague-Dawley, Brain, Membrane
parameter measured: pKi
Field pKi (float): negative decimal logarithm of the concentration in molar.

INPUT: Look up pKi for this compound: CNCCC(Oc1ccc(C(F)(F)F)cc1)c1ccccc1 (configuration not stated)
OUTPUT: 4.79

INPUT: Look up pKi for this compound: `CN(C)CCCN1c2ccccc2CCc2ccccc21`
OUTPUT: 5.68

====

target: Sigma non-opioid intracellular receptor 1 (Cavia porcellus, UniProt Q60492)
Sequence (Q60492 whole entry): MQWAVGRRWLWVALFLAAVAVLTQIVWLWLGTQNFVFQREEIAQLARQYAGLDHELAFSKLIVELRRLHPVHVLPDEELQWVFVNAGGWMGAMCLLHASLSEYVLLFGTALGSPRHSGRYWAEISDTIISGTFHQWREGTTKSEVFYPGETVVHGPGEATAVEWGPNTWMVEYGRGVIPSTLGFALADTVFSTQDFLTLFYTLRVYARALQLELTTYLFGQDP
experiment: Displacement of [3H]-(+)-pentazocine from sigma 1 receptor in Dunkin guinea pig brain membranes incubated for 120 mins by scintillation counting method
Format: cell membranes, Membrane
parameter measured: Ki (nM)
Provide the reading as a plain figure in nM.

INPUT: Look up Ki for this molecule: `COc1ccc2c(CCCCN3C4CCCC3CCC4)cccc2c1`
OUTPUT: 1.03

====

target: Sigma intracellular receptor 2 (Rattus norvegicus, UniProt Q5U3Y7)
Sequence (Q5U3Y7 whole entry): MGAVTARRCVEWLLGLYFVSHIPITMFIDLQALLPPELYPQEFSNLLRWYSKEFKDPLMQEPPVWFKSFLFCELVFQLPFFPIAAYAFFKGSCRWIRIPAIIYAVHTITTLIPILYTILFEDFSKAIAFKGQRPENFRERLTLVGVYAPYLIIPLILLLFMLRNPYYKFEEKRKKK
experiment: Displacement of [3H]DTG from sigma 2 receptor in rat liver membranes incubated for 60 mins in presence of [3H]-(+)-pentazocine by radioactivity method
Type: cell membranes, Membrane
parameter measured: Ki (nM)
Provide the reading as a plain figure in nM.

INPUT: Look up Ki for this compound: `c1ccc(CN2CCC3(CCc4ccccc4S3)CC2)cc1`
OUTPUT: 416

====

experiment: Selectivity ratio of Ki for displacement of [3H]DTG from sigma2 receptor in rat liver membranes to Ki for displacement of [3H]-(+)-pentazocine from sigma1 receptor in guinea pig brain cortex membranes
Type: cell membranes
parameter measured: Ratio Ki

INPUT: Look up Ratio Ki for this compound: `CCOC1(c2ncc(-c3ccncc3)s2)CCN(Cc2ccccc2)CC1`
OUTPUT: > 1500

INPUT: Look up Ratio Ki for this compound: `c1ccc(CO[C@H](c2ccccc2)[C@H]2CCN(Cc3ccccc3)Cc3ccccc32)cc1`
OUTPUT: > 52

INPUT: Look up Ratio Ki for this compound: c1ccc(CC2CCN(CC3CCCCC3)Cc3ccccc32)cc1 (stereo not given)
OUTPUT: > 52

INPUT: Look up Ratio Ki for this compound: `CCOC1(c2ncc(-c3cccnc3)s2)CCN(Cc2ccccc2)CC1`
OUTPUT: > 1500

INPUT: Look up Ratio Ki for this compound: Fc1ccc(CN2CCC(Cc3ccccc3)c3ccccc3C2)cc1 (stereo not given)
OUTPUT: > 52

====

target: Sigma intracellular receptor 2 (Mus musculus)
Sequence (Q8VD00 whole entry): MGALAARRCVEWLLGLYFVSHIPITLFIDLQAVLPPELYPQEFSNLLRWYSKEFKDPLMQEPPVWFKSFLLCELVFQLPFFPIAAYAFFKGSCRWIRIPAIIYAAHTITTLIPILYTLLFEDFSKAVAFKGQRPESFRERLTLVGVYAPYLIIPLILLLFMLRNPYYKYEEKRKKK
experiment: Inhibition of radioligand binding to sigma2 receptor in C57BL/6 mouse brain membranes
parameter measured: pKi
Field pKi (float): negative decimal logarithm of the concentration in molar.

INPUT: Look up pKi for this molecule: C#CCN(C)CCCOc1ccc(Cl)cc1Cl [CLORGILINE]
OUTPUT: 6.30

====

experiment: Displacement of [3H]-dio-tolylguanidine from Sigma 2 receptor in Dunkin-Hartley guinea pig brain membrane incubated for 120 mins in presence of sigma1 blocker (+)-SKF-10047 by liquid scintillation counting method
Format: cell membranes, Cavia porcellus
parameter measured: pKi
Field pKi (float): negative decimal logarithm of the concentration in molar.

INPUT: Look up pKi for this compound: `Clc1ccc(-c2noc(CCCCN3CCOCC3)n2)c(Cl)c1`
OUTPUT: 6.78

Taken from ChEMBL document CHEMBL4715859.
